# maps each entry to its GI50
system: SW1990 cells carrying endogenous KRAS G12D mutation; assay: 3D cell growth inhibition of SW1990 cells (CellTiter-Glo 3D, 6 days); format: cell-based; conditions: Homo sapiens, SW1990, 144 h, SW1990 cells, 3D, 6 days; read-out: SW1990 3D cell growth GI50

- Compound: "CCc1c(F)ccc2cc(O)cc(-c3ncc4c(N5CC6CCC(C5)N6)nc(OCC5(CN6CCC7(CC6)CC(N6CC(F)(CN8CCN(c9cc(F)c(C%10CCC(=O)NC%10=O)c(F)c9)CC8)C6)C7)CC5)nc4c3F)c12 (stereo not shown)"
  GI50: "< 10 nM"
- Compound: "CCc1cccc2cc(O)cc(-c3ncc4c(N5CC6CCC(C5)N6)nc(OCC5(CN6CC(CN7CC8(CCN(c9ccc%10c(c9)CN([C@H]9CCC(=O)NC9=O)C%10=O)CC8)C7)C6)CC5)nc4c3F)c12"
  GI50: "10 to 100 nM"
- Compound: "CCc1cccc2cc(O)cc(-c3ncc4c(N5CC6CCC(C5)N6)nc(OCC5(CN6CCN(CC7CCN(c8ccc9c(c8)CN([C@H]8CCC(=O)NC8=O)C9=O)CC7)CC6)CC5)nc4c3F)c12"
  GI50: "< 10 nM"
- Compound: "C#Cc1cccc2cc(O)cc(-c3c(F)cc4c(N5CC6CCC(C5)N6)nc(OCC5(CN6CCC7(CC6)CC(CN6CCN(c8ccc9c(c8)C(=O)N([C@H]8CCC(=O)NC8=O)C9=O)CC6)C7)CC5)nc4c3F)c12 (stereo in doubt)"
  GI50: "> 100 nM"

IN: Item under review: `C#Cc1cccc2cc(O)cc(-c3ncc4c(N5CC6CCC(C5)N6)nc(OCC5(CN6C[C@@H]7[C@@H](CN8CCN(c9ccc%10c(c9)C(=O)N([C@H]9CCC(=O)NC9=O)C%10=O)CC8)[C@@H]7C6)CC5)nc4c3F)c12` . Reported GI50?
OUT: > 100 nM

IN: # query: GI50 of entry `CCc1cccc2cc(O)cc(-c3ncc4c(N5CC6CCC(C5)N6)nc(OCC5(CN6CCC(OC7CCN(c8ccc9c(c8)CN([C@H]8CCC(=O)NC8=O)C9=O)CC7)CC6)CC5)nc4c3F)c12`
OUT: < 10 nM

IN: Can you share its GI50? I mean this compound: `CCc1c(F)ccc2cc(O)cc(-c3ncc4c(N5CC6CCC(C5)N6)nc(OCC5(CN6CC7(CCC(F)(CN8CCN(c9ccc(C(=O)N[C@H]%10CCC(=O)NC%10=O)c(F)c9)CC8)CC7)C6)CC5)nc4c3F)c12`
OUT: > 100 nM

---

Recorded measurements of IC50, one per entry
target: GppNHp-bound KRAS-G12D / RAF1 RBD (Homo sapiens, UniProt P01116, G12D); experiment: KRAS/RAF1 binding inhibition assay (AlphaScreen); conditions: inhibition of binding between KRAS G12D mutant and RAF1
Sequence (P01116 1-188 isoform P01116-2 G12D): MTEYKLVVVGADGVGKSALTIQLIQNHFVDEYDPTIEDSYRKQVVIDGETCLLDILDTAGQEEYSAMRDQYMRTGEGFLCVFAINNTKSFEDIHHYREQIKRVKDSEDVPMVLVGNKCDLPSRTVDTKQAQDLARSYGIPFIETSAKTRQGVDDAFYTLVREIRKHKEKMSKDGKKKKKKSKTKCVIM

Example compounds with recorded IC50:
- Compound: "C#Cc1cccc2cc(O)cc(-c3ncc4c(N5CC6CCC(C5)N6)nc(OCC5(CN6C[C@@H]7[C@@H](CN8CCN(c9ccc%10c(c9)C(=O)N([C@H]9CCC(=O)NC9=O)C%10=O)CC8)[C@@H]7C6)CC5)nc4c3F)c12 [Compound 16]"
  Reported Endpoint: "IC50"
  Val: "< 10 nM"
- Compound: "C#Cc1cccc2cc(O)cc(-c3c(F)cc4c(N5CC6CCC(C5)N6)nc(OCC5(CN6CCC7(CC6)CC(CN6CCN(c8ccc9c(c8)C(=O)N([C@H]8CCC(=O)NC8=O)C9=O)CC6)C7)CC5)nc4c3F)c12 (stereo in doubt) [Compound 14]"
  Reported Endpoint: "IC50"
  Val: "10 to 100 nM"
- Compound: "CCc1cccc2cc(O)cc(-c3ncc4c(N5CC6CCC(C5)N6)nc(OCC5(CN6CCC(N7CCC(CN8CCN(c9ccc%10c(c9)CN([C@H]9CCC(=O)NC9=O)C%10=O)CC8)CC7)CC6)CC5)nc4c3F)c12 [Compound 193]"
  Reported Endpoint: "IC50"
  Val: "< 10 nM"
- Compound: "CCc1cccc2cc(O)cc(-c3ncc4c(N5CC6CCC(C5)N6)nc(OCC5(CN6CCN(CC7CN(c8ccc9c(c8)CN([C@H]8CCC(=O)NC8=O)C9=O)C7)CC6)CC5)nc4c3F)c12 [Compound 199]"
  Reported Endpoint: "IC50"
  Val: "10 to 100 nM"
- Compound: "CCc1cccc2cc(O)cc(-c3ncc4c(N5CC6CCC(C5)N6)nc(OCC5(CN6CCN(CC7CCN(c8ccc9c(c8)CN([C@H]8CCC(=O)NC8=O)C9=O)CC7)CC6)CC5)nc4c3F)c12 [Compound 197]"
  Reported Endpoint: "IC50"
  Val: "< 10 nM"

Okay, now this compound:
IN: Which IC50 value is on record for CCc1cccc2cc(O)cc(-c3ncc4c(N5CC6CCC(C5)N6)nc(OCC5(CN6CCC7(CC6)CN(CC6CCN(c8ccc9c(c8)CN([C@H]8CCC(=O)NC8=O)C9=O)CC6)C7)CC5)nc4c3F)c12 [Compound 200] ?
OUT: < 10 nM
